Target: T1, mSNAPc#2 SNAP50-W350A (Homo sapiens, UniProt Q5SXM2;Q92966;Q16533;O75971 1-505;1-411;1-268;1-98, W350A)
T1 sequence 1: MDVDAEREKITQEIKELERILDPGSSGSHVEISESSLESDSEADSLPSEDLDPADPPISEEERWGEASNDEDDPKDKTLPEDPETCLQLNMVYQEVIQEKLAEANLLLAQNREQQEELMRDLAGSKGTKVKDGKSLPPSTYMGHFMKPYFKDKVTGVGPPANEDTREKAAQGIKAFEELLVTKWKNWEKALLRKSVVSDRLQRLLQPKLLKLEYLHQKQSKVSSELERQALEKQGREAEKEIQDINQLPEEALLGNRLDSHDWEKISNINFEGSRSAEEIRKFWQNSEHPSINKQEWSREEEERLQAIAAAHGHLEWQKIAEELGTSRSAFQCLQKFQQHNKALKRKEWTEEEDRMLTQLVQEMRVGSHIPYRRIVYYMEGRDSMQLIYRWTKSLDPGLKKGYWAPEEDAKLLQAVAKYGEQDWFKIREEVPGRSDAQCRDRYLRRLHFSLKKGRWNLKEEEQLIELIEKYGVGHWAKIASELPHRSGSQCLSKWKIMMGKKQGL
T1 sequence 2: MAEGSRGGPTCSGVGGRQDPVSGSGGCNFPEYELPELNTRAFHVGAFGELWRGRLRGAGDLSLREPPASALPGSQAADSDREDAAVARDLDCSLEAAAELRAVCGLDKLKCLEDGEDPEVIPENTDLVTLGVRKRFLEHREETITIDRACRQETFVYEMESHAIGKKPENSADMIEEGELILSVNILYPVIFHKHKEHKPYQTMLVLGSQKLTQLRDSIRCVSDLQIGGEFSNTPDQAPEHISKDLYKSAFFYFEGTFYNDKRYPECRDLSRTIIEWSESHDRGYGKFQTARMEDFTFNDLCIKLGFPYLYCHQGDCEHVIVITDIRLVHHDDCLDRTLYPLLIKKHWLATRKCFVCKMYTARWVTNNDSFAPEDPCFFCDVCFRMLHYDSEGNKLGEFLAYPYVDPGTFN
T1 sequence 3: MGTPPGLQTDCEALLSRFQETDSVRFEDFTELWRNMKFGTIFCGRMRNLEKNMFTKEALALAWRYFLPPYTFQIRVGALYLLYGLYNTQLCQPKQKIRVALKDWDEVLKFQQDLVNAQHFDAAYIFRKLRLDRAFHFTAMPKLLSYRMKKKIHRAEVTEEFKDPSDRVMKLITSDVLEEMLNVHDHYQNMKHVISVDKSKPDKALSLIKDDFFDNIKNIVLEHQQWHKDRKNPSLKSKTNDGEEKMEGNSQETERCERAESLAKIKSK
T1 sequence 4: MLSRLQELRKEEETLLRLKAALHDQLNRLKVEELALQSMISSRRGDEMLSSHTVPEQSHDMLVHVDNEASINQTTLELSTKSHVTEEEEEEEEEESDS
Experiment: SPR; EMSA: 100 mM KCl, 25 mM HEPES-K pH 7.6, 12.5 mM MgCl2, 10 uM ZnCl2, 0.1 mM EDTA, 10% glycerol, 3 mM DTT, 0.5 mM PMSF, 50 nM DNA, RT 30 min; SPR: 100 mM KCl, 12.5 mM MgCl2, 10 uM ZnCl2, 0.1 mM EDTA, 0.05% P20, 25 C
Conditions: protein: recombinant; tags: as P1; copies: 1;1;1;1
Assay Readout: Kd (nM)
Answer in nM, number only, no unit symbol.

Record 25 bp hU6-1 PSE (SPR) (dsDNA) DNA 1: TGCTTACCGTAACTTGAAAGTATTT DNA 2: AAATACTTTCAAGTTACGGTAAGCA . Reported Kd: 887
